- Tested on: NCI-H522 lung
- assayNotes: NCI tumour cell line growth inhibition, 48 h
// values below are reported TGI

# compound, valueObserved
data = [
    ("O=C1CC2C=CC(O)C(C1)C2 (stereo unspecified)", "> 100 µM"),
    ("N#Cc1c(N)[nH]c(=S)c(C#N)c1-c1cccc(Cl)c1", "56.7 µM"),
    ("Cc1ccc2c(C(C[N+](=O)[O-])c3cccs3)c(-c3ccccc3)[nH]c2c1 (stereo unspecified)", "8.03 µM"),
    ("COc1cc2oc(-c3ccc(O)cc3)c(OC3OC(C)C(O)C(O)C3O)c(=O)c2c(O)c1OC (stereo unspecified)", "> 100 µM"),
]

Lookup: Supply measured TGI of COC1OC(=O)[C@H]2O[N+]([O-])=C(C)[C@@H]12 (stereo partly specified) in your reply.
Found: > 100 µM

Lookup: Supply measured TGI of NC(N)=N/N=C(/c1ccccc1)c1ccc(F)cc1 in your reply.
Found: 1.45 µM

Lookup: Supply measured TGI of Cc1ccc(N=Nc2c3c(c(O)c4ccccc24)CCC(C)(C)O3)cc1 in your reply.
Found: > 100 µM
